The measurements presented in this section are drawn from patent US11472788B2.

Tgt: cellular IDO1 in HeLa cells (Homo sapiens (Human), UniProt P14902)
Sequence (P14902 whole entry): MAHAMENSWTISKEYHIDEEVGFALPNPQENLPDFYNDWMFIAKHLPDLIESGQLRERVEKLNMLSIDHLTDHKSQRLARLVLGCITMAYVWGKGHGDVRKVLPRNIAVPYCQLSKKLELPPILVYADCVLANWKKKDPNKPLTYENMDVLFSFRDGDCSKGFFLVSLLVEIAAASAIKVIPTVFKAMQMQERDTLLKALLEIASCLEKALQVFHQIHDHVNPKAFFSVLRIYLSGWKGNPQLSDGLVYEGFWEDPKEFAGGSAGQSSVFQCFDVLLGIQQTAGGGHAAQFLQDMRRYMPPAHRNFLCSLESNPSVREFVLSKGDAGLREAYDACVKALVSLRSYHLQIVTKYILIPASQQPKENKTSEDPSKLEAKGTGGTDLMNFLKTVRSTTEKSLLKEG
Protocol Description: HeLa Cell-Based IDO1 Kyn (Kynurenine) Production Assay
Experimental Conditions: IFN-γ induced IDO1, 48 hours incubation, Kyn absorbance at 480 nm
# key: entry, value: EC50
Answer in nM, number only, no unit symbol.

Some entries whose results are on file:
Molecule	Tgt	EC50, nM
CCOC(=O)c1cc2nc([C@@H](C)C3CCC(c4ccnc5ccc(F)cc45)CC3)[nH]c2cc1C (stereo partly shown)	cellular IDO1 in HeLa cells (Homo sapiens (Human), UniProt P14902)	73.3
Fc1ccc2nccc([C@H]3CC[C@H](c4nc5cc(Cl)ccc5[nH]4)CC3)c2c1	cellular IDO1 in HeLa cells (Homo sapiens (Human), UniProt P14902)	74

Shifting focus to the molecule that follows.
Request: Looking for the measured EC50 of Fc1ccc([C@H]2CC[C@@H](Cc3nc4cc(Cl)ccc4[nH]3)CC2)cc1 [Example A30b] , can you help?
Response: 39

###

Tgt: cellular IDO1 in HeLa cells (Homo sapiens (Human))
Protocol Description: HeLa Cell-Based IDO1 Kyn (Kynurenine) Production Assay
Experimental Conditions: IFN-γ induced IDO1, 48 hours incubation, Kyn absorbance at 480 nm
Classify: Criterion met when EC50 is strictly less than 30 nM; Criterion not met when EC50 is not.

Compound	Tgt	Cat
CC(c1nc2cc(-c3ccccc3)c(F)cc2[nH]1)C1CCC(c2ccnc3ccc(F)cc23)CC1 (stereo not drawn)	cellular IDO1 in HeLa cells (Homo sapiens (Human))	Criterion met

Please find the next compound below.
Request: hey, is EC50 for CC(c1nc2c(F)c(F)cc(Cl)c2[nH]1)[C@H]1CC[C@@H](c2ccnc3ccc(F)cc32)CC1 (stereo partly drawn) lower than 30 nM or not?
Response: Criterion met

###

Tgt: cellular IDO1 in HeLa cells (Homo sapiens (Human), UniProt P14902)
Protocol Description: HeLa Cell-Based IDO1 Kyn (Kynurenine) Production Assay
Experimental Conditions: IFN-γ induced IDO1, 48 hours incubation, Kyn absorbance at 480 nm
# key: entry, value: EC50
Answer in nM, number only, no unit symbol.

Request: Looking for the measured EC50 of CC(C)OC(=O)c1ccc2nc([C@H](C)[C@H]3CC[C@@H](c4ccnc5ccc(F)cc54)CC3)[nH]c2c1 [B176] , can you help?
Response: 2.9

Request: Consider next the molecule c1ccc(C2CCC(Cc3nc4cc(C5CC5)ccc4[nH]3)CC2)cc1 (stereo not drawn) [Example A31] in the same way.
Response: 115

Request: Consider next the molecule Cc1c(Br)ccc2[nH]c(C[C@H]3CC[C@@H](c4ccnc5ccc(F)cc54)CC3)nc12 [Example A11b] in the same way.
Response: 14

Request: Consider next the molecule Fc1ccc(C2CCC(Cc3nc4cc(C5CC5)ccc4[nH]3)CC2)c2cccnc12 (stereo not drawn) [Example A25] in the same way.
Response: 268

Request: Consider next the molecule COC(=O)c1c(F)ccc2[nH]c([C@@H](C)[C@H]3CC[C@@H](c4ccnc5ccc(F)cc54)CC3)nc12 [Example B198] in the same way.
Response: 984

Request: Consider next the molecule CC(c1nc2ccc(C(=O)NC3CCC3)cc2[nH]1)[C@H]1CC[C@@H](c2ccnc3ccc(F)cc32)CC1 (stereo partly drawn) [Example B164] in the same way.
Response: 5.8

Request: Consider next the molecule CC(c1nc2cc3ccccc3cc2[nH]1)[C@H]1CC[C@@H](c2ccnc3ccc(F)cc32)CC1 (stereo partly drawn) [Example B166] in the same way.
Response: 251

Request: Consider next the molecule C[C@@H](c1nc2ccc(NS(C)(=O)=O)cc2[nH]1)[C@H]1CC[C@@H](c2ccnc3ccc(F)cc32)CC1 [Example B136] in the same way.
Response: 296

Request: Consider next the molecule c1ccc2nc(C3CCC(Cc4nc5ccccc5[nH]4)CC3)ccc2c1 (stereo not drawn) [Example A20] in the same way.
Response: 89

Request: Consider next the molecule C[C@@H](c1nc2ccc(NS(C)(=O)=O)cc2[nH]1)[C@H]1CC[C@@H](c2ccnc3ccc(F)cc32)CC1 [Example B180] in the same way.
Response: 384

Request: Consider next the molecule C[C@@H](c1nc2c(ccc3ccccc32)[nH]1)[C@H]1CC[C@H](c2ccnc3ccc(F)cc32)CC1 [Example B212] in the same way.
Response: 27.9

Request: Consider next the molecule CC(C)c1ccc2[nH]c(C[C@H]3CC[C@@H](c4ccnc5ccc(F)cc54)CC3)nc2c1 [Example A5b] in the same way.
Response: 23

Request: Consider next the molecule Fc1ccc2nccc([C@H]3CC[C@@H](c4nc5cc(C6CC6)ccc5[nH]4)CC3)c2c1 [Example C6b] in the same way.
Response: 14

Request: Consider next the molecule Fc1ccc2nccc([C@H]3CC[C@H](Cc4nc5cc(F)c(F)cc5[nH]4)CC3)c2c1 [Example A6a] in the same way.
Response: 141

Request: Consider next the molecule Clc1ccc2[nH]c(C[C@H]3CC[C@@H](c4ccc5ncccc5c4)CC3)nc2c1 [Example A23b] in the same way.
Response: 24

###

Tgt: cellular IDO1 in HeLa cells (Homo sapiens (Human), UniProt P14902)
Protocol Description: HeLa Cell-Based IDO1 Kyn (Kynurenine) Production Assay
Experimental Conditions: IFN-γ induced IDO1, 48 hours incubation, Kyn absorbance at 480 nm
Each record's class is read off its EC50 using these ranges: small value: < 7 nM; mid value: ≥ 7 nM and < 50 nM; large value: ≥ 50 nM

Request: Hi there! Could you help me figure out the category for C[C@@H](c1nc2cc(F)c(F)c(Cl)c2[nH]1)[C@H]1CC[C@@H](c2ccnc3ccc(F)cc32)CC1 please?
Response: mid value

Request: Consider next the compound Fc1ccc2nccc(C3CCC(c4nc5cc(Cl)c(F)cc5[nH]4)CC3)c2c1 (single isomer, unassigned) [Example C1a] in the same way.
Response: large value

Request: Consider next the compound COC(=O)c1cccc2nc([C@@H](C)[C@H]3CC[C@@H](c4ccnc5ccc(F)cc54)CC3)[nH]c12 in the same way.
Response: large value

Request: Consider next the compound CC(c1nc2ccc(C(=O)NC3COC3)cc2[nH]1)[C@H]1CC[C@@H](c2ccnc3ccc(F)cc32)CC1 (stereo partly drawn) in the same way.
Response: large value

Request: Consider next the compound Fc1ccc2nccc([C@H]3CC[C@H](Cc4nc5cc(C6CC6)ccc5[nH]4)CC3)c2c1 in the same way.
Response: large value

Request: Consider next the compound CCOC(=O)c1ccc2[nH]c(C(C)[C@H]3CC[C@@H](c4ccnc5ccc(F)cc54)CC3)nc2c1 (stereo partly drawn) in the same way.
Response: small value

Request: Consider next the compound Fc1ccc([C@H]2CC[C@H](Cc3nc4cc(Cl)ccc4[nH]3)CC2)cc1 [Example A30a] in the same way.
Response: mid value

Request: Consider next the compound C[C@@H](c1nc2cc(-c3ccccc3)c(F)cc2[nH]1)[C@H]1CC[C@@H](c2ccnc3ccc(F)cc32)CC1 [B218] in the same way.
Response: small value

Request: Consider next the compound Fc1ccc2nccc([C@H]3CC[C@@H](Cc4nc5cc(F)c(F)cc5[nH]4)CC3)c2c1 in the same way.
Response: mid value

Request: Consider next the compound COC(=O)c1ccc2[nH]c([C@H]3CC[C@H](c4ccnc5ccc(F)cc54)CC3)nc2c1 in the same way.
Response: large value

Request: Consider next the compound Fc1ccc2nccc([C@H]3CC[C@@H](Cc4nc5cc6c(cc5[nH]4)OCO6)CC3)c2c1 in the same way.
Response: small value

Request: Consider next the compound Cc1ccc2[nH]c(C[C@H]3CC[C@H](c4ccnc5ccc(F)cc54)CC3)nc2c1 in the same way.
Response: large value

Request: Consider next the compound C[C@@H](c1nc2c(F)c(F)cc(Cl)c2[nH]1)[C@H]1CC[C@@H](c2ccnc3ccc(F)cc32)CC1 in the same way.
Response: mid value

###

Tgt: cellular IDO1 in HeLa cells (Homo sapiens (Human))
Protocol Description: HeLa Cell-Based IDO1 Kyn (Kynurenine) Production Assay
Experimental Conditions: IFN-γ induced IDO1, 48 hours incubation, Kyn absorbance at 480 nm
Value Kind: log10 EC50 (log10 of the value in nM)
Heads up, the numbers here are log10 of EC50 in nM units.

Some entries whose results are on file:
Compound	Tgt	log10 EC50
Cc1cc(C(=O)NC2CCC2)cc2[nH]c(C(C)C3CCC(c4ccnc5ccc(F)cc45)CC3)nc12 (centres unmarked) [Example B206]	cellular IDO1 in HeLa cells (Homo sapiens (Human))	1.43
Fc1ccc2nccc(C3CCC(Cc4nc5cc(N6CCCCC6)c(Br)cc5[nH]4)CC3)c2c1 (centres unmarked) [Example A16]	cellular IDO1 in HeLa cells (Homo sapiens (Human))	2.40
Fc1ccc2nccc([C@H]3CC[C@@H](c4nc5cc(Cl)ccc5[nH]4)CC3)c2c1 [Example C2b]	cellular IDO1 in HeLa cells (Homo sapiens (Human))	1.04

Request: Looking for the measured log10 EC50 of Fc1ccc2[nH]c([C@H]3CC[C@@H](c4ccnc5ccc(F)cc54)CC3)nc2c1 [Example C5b] , can you help?
Response: 1.86

Request: Consider next the compound COC(=O)c1ccc2[nH]c([C@@H](C)[C@H]3CC[C@@H](c4ccnc5ccc(F)cc54)CC3)nc2c1 [Example B3a] in the same way.
Response: -0.26

Request: Consider next the compound C[C@H](c1nc2cc(-c3ccccc3)c(F)cc2[nH]1)[C@H]1CC[C@@H](c2ccnc3ccc(F)cc32)CC1 [B219] in the same way.
Response: 1.14

Request: Consider next the compound COc1ccc2[nH]c(CC3CCC(c4ccc5ccccc5n4)CC3)nc2c1 (centres unmarked) [Example A21] in the same way.
Response: 2.12

Request: Consider next the compound Fc1ccc2nccc(C3CCC(CCc4nc5cc(C6CC6)ccc5[nH]4)CC3)c2c1 (centres unmarked) [Example C10] in the same way.
Response: 0.85
